Please respond with reported abundance fitness for every item in the list.
B1: E3 ubiquitin-protein ligase NEDD4-like, residues 539 to 589; numbered along this chain, Q96PU5 (parent)
chain: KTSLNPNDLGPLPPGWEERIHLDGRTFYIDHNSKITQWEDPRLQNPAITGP

- Variants of: B1
- Experiment: abundance fitness (aPCA) (normalised: wild type 0, dead -1); higher = more abundant; growth selection in yeast, the domain comes from the species named
- Assay setup: Homo sapiens
Keep it simple and answer with nothing but the number.

Request the reported abundance fitness associated with E18V -0.322

Request the reported abundance fitness associated with P6I 0.077

Request the reported abundance fitness associated with G50S -0.153

Request the reported abundance fitness associated with L12F -0.088

Request the reported abundance fitness associated with Q37K -0.357

Request the reported abundance fitness associated with G10I -0.508

Request the reported abundance fitness associated with K34N -0.053

Request the reported abundance fitness associated with I35V -0.163

Request the reported abundance fitness associated with L22M 0.013

Request the reported abundance fitness associated with N7S -0.042

Request the reported abundance fitness associated with L12C -0.824

Request the reported abundance fitness associated with P51E -0.109

Request the reported abundance fitness associated with F27K -0.002

Request the reported abundance fitness associated with D40C -0.639

Request the reported abundance fitness associated with P13V -1.1

Request the reported abundance fitness associated with Q44C -0.15

Request the reported abundance fitness associated with K34G -0.022

Request the reported abundance fitness associated with H21V -0.296

Request the reported abundance fitness associated with P46K 0.028

Request the reported abundance fitness associated with G15Y -0.53

Request the reported abundance fitness associated with W16E -0.393

Request the reported abundance fitness associated with P46S -0.048

Request the reported abundance fitness associated with F27D -0.27

Request the reported abundance fitness associated with T36M -0.208

Request the reported abundance fitness associated with G15L -0.622

Request the reported abundance fitness associated with T49D -0.086

Request the reported abundance fitness associated with K1D -0.201

Request the reported abundance fitness associated with L22I -0.107

Request the reported abundance fitness associated with D30N 0.166

Request the reported abundance fitness associated with I20G -0.289

Request the reported abundance fitness associated with P41W -1.11

Request the reported abundance fitness associated with K34M -0.105

Request the reported abundance fitness associated with N45E -0.046

Request the reported abundance fitness associated with T49P -0.135

Request the reported abundance fitness associated with I29R -0.271

Request the reported abundance fitness associated with P6T 0.144

Request the reported abundance fitness associated with P6M 0.112

Request the reported abundance fitness associated with K34H -0.087

Request the reported abundance fitness associated with P46E -0.39

Request the reported abundance fitness associated with L43E -0.042

Request the reported abundance fitness associated with A47E -0.002

Request the reported abundance fitness associated with R19S -0.132

Request the reported abundance fitness associated with I29M -0.141

Request the reported abundance fitness associated with E17S -0.246

Request the reported abundance fitness associated with E17F -0.753

Request the reported abundance fitness associated with T2S -0.023
